Test system: M14 melanoma
Test: NCI tumour cell line growth inhibition, 48 h
attribute measured: TGI

* CC[C@@H]1OC2(C)CC(S(=O)(=O)c3ccccc3)CC1O2 (stereo not given in full) | > 100 µM
* CC(C)(C)OC(=O)NC(Cc1ccc([N+](=O)[O-])cc1)C(=O)NC(CCCCNC(=O)OCc1ccccc1)C(=O)ON1C(=O)CCC1=O (stereo not given) | > 100 µM
* Nc1ncc(Cc2nc3ccccc3s2)s1 | > 100 µM
* CCC1(CN(C)C)CC/C(=C\c2ccc3c(c2)OCO3)C1=O (stereo not given) | > 100 µM
* CCCCCCCCCC(=O)CC(=O)c1c(O)cccc1O | 72.1 µM

====

Test system: UACC-257 melanoma
Experiment: NCI tumour cell line growth inhibition, 48 h
Items are presented alongside their recorded TGI.
attribute measured: TGI

• CC/C=C\CCC/C=C1/C(=O)C=C[C@@H]1C/C=C\CCCC(=O)O = 23.7 µM
• CN1CCN(c2ccc3[nH]c(C4=C(O)c5nc(CO)n(C)c5C(=O)C4=O)nc3n2)CC1 = > 100 µM
• O=Cc1coc2ccccc2c1=O = 46.7 µM
• COC(=O)CCC1=C(C)c2cc3[n-]c(cc4nc(cc5[n-]c(cc1n2)c(CCC(=O)OC)c5C)C=C4C)cc3C.[Cd+2] = 18.3 µM
• CCOC(=O)c1c(SCCO)n(-c2ccccc2)c(=S)n(-c2ccccc2)c1=O = > 100 µM
• CCOC(=O)C(C)(C)Oc1ccc2c(-c3ccc(Cl)cc3)cc(=O)oc2c1 = > 100 µM
• C=C1C(=O)OC2/C=C(\C)C(O)/C=C\C(C)(O)CC(OC(=O)/C(C)=C/C)C12 (stereo not given) = > 77.1 µM
• c1ccc(-c2cc(-c3cc(-c4ccccc4)n(-c4ccccc4)n3)nn2-c2ccccc2)cc1 = > 100 µM
• CN(O)C(=O)Cc1ccccc1 = > 100 µM
• Cc1ccc(/C=N/Nc2ncccn2)s1 = > 100 µM
• COc1ccc(C(=O)C=C2NCCN2)cc1 = > 100 µM
• CC1OC(O)C(O)C(O)C1O (stereo not given) = > 100 µM
• C[C@@H]1CC[C@@]2(OC1)O[C@H]1C[C@H]3[C@@H]4CC=C5C[C@@H](O[C@@H]6O[C@H](CO)[C@@H](O[C@@H]7O[C@@H](CO)[C@H](O)[C@H]7O)[C@H](O)[C@H]6O[C@@H]6O[C@@H](C)[C@H](O)[C@@H](O)[C@H]6O)CC[C@]5(C)[C@H]4CC[C@]3(C)[C@H]1[C@@H]2C = 2.64 µM
• Oc1ccccc1-n1c(-c2ccccc2)ccc1-c1ccccc1 = 27.3 µM
• Cc1nc(C(N)=S)sc1C(=O)/C=C/c1cccc(O)c1 = > 100 µM
• C[C@@H]1C(O)CC[C@H](C)C12CC=CC2=O (stereo not given in full) = > 100 µM
• CCN(CC)CCNc1ccc(C)c2sc3ccc(O)cc3c(=O)c12 = 2.99 µM
• O=C(C1OC1c1ccc([N+](=O)[O-])cc1)C12CC3CC(CC(C3)C1)C2 (stereo not given) = 30.9 µM
• NC(CCCCNc1ccn(C2OC(CO)C(O)C2O)c(=O)n1)C(=O)O (stereo not given) = > 100 µM
• O=C(/C=C/c1ccc(Cl)c(Cl)c1)Oc1ccc(/C=C2\CCCCC2=O)cc1 = > 100 µM
